# Tested on: ASV-based vector
# assay_name: Stable transduction of HeLa cells by ASV neo vector
# Format: cell-based
# condition_info: 24 h, read-out: IC50, reduction in number of cells stably transduced by ASV vector
parameter: IC50

Form field IC50, entry "Cn1c(=O)c2c(ncn2C)n(C)c1=O" : ~800 µM
